Cited source: PubChem BioAssay (NCI)

system: HOP-92 NSCLC; test: NCI tumour cell line growth inhibition, 48 h
parameter_measured: TGI

compound	parameter_measured	result
CC1C(=O)c2cc3c(cc2CCN(C)Cc2c1ccc1c2OCO1)OCO3 (stereo not drawn)	TGI	> 75 µg/mL
COC(=O)C1C(=O)O[C@@H](c2ccc(OC)c(OC)c2OC)C1C(=O)OC (mixture of isomers)	TGI	> 100 µM
CCCCNC(=NCc1ccccc1)NC#N	TGI	> 100 µM
CN=C(N)N=Nc1c(O)[nH]c2ccccc12	TGI	> 100 µM
COC(=O)c1nn2ccc3ccccc3c2c1C(=O)OC	TGI	> 100 µM
CCOC(=O)c1sc2c(c1O)c(=O)n(-c1ccccc1)c(=S)n2-c1ccccc1	TGI	> 100 µM

QUERY: For CCN(CC)CCN1C(=O)C2C3C(=O)CC(C)(CC3C)C2C1=O (stereo not drawn) , what is its reported TGI?
RESULT: > 100 µM
